assay: basal HepG2 mitochondrial membrane potential changes, profiling panel, cell-based, JC-1 fluorescence, 24 h, 100 nL compound (AID 1167); conditions: higher = more signal; note: test concentration not given here
parameter: z-score

{"chemical-smiles": "O=C1[C@H]2[C@H]3[C@H](O)[C@H](O)CC(=NOCc4ccccc4)[C@@H]3CC[C@H]2C(=O)N1C1CCCCC1", "parameter": "z-score", "value-measured": -1.19}
{"chemical-smiles": "COc1ccccc1CN1C(=O)c2ccccc2[C@@]2(Cc3ccccc3N(C(C)C)C2=O)[C@@H]1c1ccc(CO)cc1", "parameter": "z-score", "value-measured": 0.881}
{"chemical-smiles": "CC(CCC(=O)OC[C@H]1O[C@H](C#Cc2ccccc2)C=C[C@@H]1Oc1ccc(C)cc1)=NO[C@@H](C)c1cn([C@H](CO)Cc2ccccc2)nn1", "parameter": "z-score", "value-measured": 0.453}
{"chemical-smiles": "[N-]=[N+]=NCc1ccccc1[C@@H]1OC(c2ccc(OCCCO)cc2)=N[C@]1(Cc1ccccc1)C(=O)N1CCOCC1", "parameter": "z-score", "value-measured": 0.787}
{"chemical-smiles": "C#CCCCON=C1C[C@@H](O)[C@@H](O)[C@@H]2[C@@H]3C(=O)N(c4cccc(Oc5ccccc5)c4)C(=O)[C@@H]3CC[C@@H]12", "parameter": "z-score", "value-measured": 0.106}
{"chemical-smiles": "O=C1[C@H]2[C@H]3[C@H](O)[C@H](O)CC(=NO[C@@H]4O[C@H](CO)[C@@H](O)[C@H](O)[C@H]4O)[C@H]3CC[C@H]2C(=O)N1Cc1ccc2c(c1)OCO2", "parameter": "z-score", "value-measured": -0.102}
{"chemical-smiles": "COc1cccc([C@H]2Oc3ccc(OC)cc3C(=NO[C@H](C)c3cn([C@@H]4COC[C@H]4O)nn3)[C@@H]2O)c1", "parameter": "z-score", "value-measured": -0.832}

###

test: E. coli growth modulation, two-sided OD650, primary screen, E. coli filamentation project, strain DRC41, 24 h (AID 1093); settings: OD650, 24 h, higher = more signal, called active from +8 up or from −8 down;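 note: MC1000 strain lacking acrAB efflux and sulA so SOS filamentation is blocked; test concentration not given here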
Overview of recorded z-score for various compounds

{"compound": "CCOC(=O)NN=C1C[C@@H](O)[C@@H](O)[C@@H]2[C@@H]3C(=O)N(C4CCCCC4)C(=O)[C@@H]3CC[C@H]12", "z-score": -0.931}
{"compound": "COc1ccc(-c2nc3c(c4c2C[C@H](C)OC4)CN(CCC(C)C)CC3)cc1", "z-score": 0.618}
{"compound": "C[C@@H]1C=CCC(=O)OC[C@H](C)C(=O)OC[C@H]2O[C@H]1C=C[C@H]2O", "z-score": 0.0861}
{"compound": "C=COC[C@H]1CN2[C@@H](CC[C@@H](C)[C@@H]2c2ccc(Br)cc2)C(=O)O1", "z-score": -0.0786}
{"compound": "CC(C)[C@H](NC(=O)OC(C)(C)C)[C@@H](O)CC(=O)OC(C)(C)C", "z-score": -0.809}
{"compound": "C=CC[C@@H]1C=C[C@H](ON=C[C@@H](OC)[C@H](C)C=CCC(=O)OC)[C@@H](CO)O1", "z-score": 0.23}
{"compound": "CN(C)c1ccc(C(O)C2C=CC3C(=O)N(c4ccccc4)C(=O)C3N2Nc2ccccc2F)cc1 (stereo not drawn)", "z-score": -0.457}
{"compound": "O=C1[C@H]2[C@H]3[C@H](O)[C@H](O)CC(=NO[C@@H]4O[C@H](CO)[C@@H](O)[C@H](O)[C@H]4O)[C@H]3CC[C@H]2C(=O)N1Cc1ccc2c(c1)OCO2", "z-score": 0.529}
